test system: Staphylococcus aureus; assay: Antibacterial activity against Staphylococcus aureus SH1000 assessed as growth inhibition after 72 hrs by broth microdilution method; format: functional; settings: SH1000, 72 h
outcome-measure: MIC (µM)

The value of MIC measured for the molecule `CCCCCCCCCCCCCCCC[N+](C)(C)CC[N+](C)(C)CCCCCCCCCCCC` turned out to be 8

The value of MIC measured for the molecule `CCCCCCCCCCCCCCCCCCCC[N+](C)(C)CC[N+](C)(C)CCCCCCCCCCCC` turned out to be 8

The value of MIC measured for the molecule `CCCCCCCCCCCCCCCCCCCC[N+](C)(C)CCN(C)C` turned out to be 4

P = CCCCCCCCCCCCCCCC[N+](C)(C)CC[N+](C)(C)CCCCCCCCCCCCCCCC
Q = CCCCCCCCCCCCCC[N+](C)(C)CC[N+](C)(C)CCCCCCCCCC
Query block: When their MIC values are compared, which is larger, P or Q ? Mark your selection by writing its label.
Result block: P

====

system: Pseudomonas aeruginosa; test: Antibacterial activity against wild-type Pseudomonas aeruginosa PAO1 assessed as growth inhibition after 72 hrs by broth microdilution method; type: functional; settings: PAO1, 72 h
outcome-measure: MIC (µM)

A selection of reference data follows.
The value of MIC measured for the compound `CCCCCCCCCCCCCCCC[N+](C)(C)CC[N+](C)(C)CCCCCCCCCCCCCCCC` turned out to be 63

The value of MIC measured for the compound `CCCCCCCCCCCCCC[N+](C)(C)CC[N+](C)(C)CCCCCCCCCC` turned out to be 4

The value of MIC measured for the compound `CCCCCCCCCCCCCCCCCCCC[N+](C)(C)CC[N+](C)(C)CCCCCCCCCCCCCC` turned out to be 63

1 = CCCCCCCCCCCCCCCC[N+](C)(C)CC[N+](C)(C)CCCCCCCCCCCCCC
2 = CCCCCCCCCCCCCCCC[N+](C)(C)CC[N+](C)(C)CCCCCCCCCCCC
Query block: Select one. Lower MIC: 1 or 2 Mark your selection by writing its label.
Result block: 2
(2: 32 µM, 1: 63 µM)

I = CCCCCCCCCCCCCCCCCCCC[N+](C)(C)CC[N+](C)(C)CCCCCCCCCCCCCCCC
II = CCCCCCCCCCCCCCCC[N+](C)(C)CCN(C)C
Query block: When their MIC values are compared, which is larger, I or II ? Mark your selection by writing its label.
Result block: I
(I: 63 µM, II: 16 µM)

====

test system: Escherichia coli; assay: Antibacterial activity against Escherichia coli MC4100 assessed as growth inhibition after 72 hrs by broth microdilution method; format: functional; settings: MC4100, 72 h
outcome-measure: MIC (µM)

The value of MIC measured for the compound `CCCCCCCCCCCCCC[N+](C)(C)CC[N+](C)(C)CCCCCCCCCCCCCC` turned out to be 4

The value of MIC measured for the compound `CCCCCCCCCCCCCCCCCCCC[N+](C)(C)CC[N+](C)(C)CCCCCCCCCCCCCC` turned out to be 16

The value of MIC measured for the compound `CCCCCCCCCC[N+](C)(C)CC[N+](C)(C)CCCCCCCC` turned out to be 63

The value of MIC measured for the compound `CCCCCCCCCCCCCCCC[N+](C)(C)CC[N+](C)(C)CCCCCCCC` turned out to be 2

A = CCCCCCCCCCCC[N+](C)(C)CC[N+](C)(C)CCCCCCCCCC
B = CCCCCCCCCCCCCCCC[N+](C)(C)CC[N+](C)(C)CCCCCCCCCCCCCC
Query block: Select one. Lower MIC: A or B Mark your selection by writing its label.
Result block: A
(A: 2 µM, B: 16 µM)

====

tested on: Staphylococcus aureus; test: Antibacterial activity against Staphylococcus aureus SH1000 assessed as growth inhibition after 72 hrs by broth microdilution method; format: functional; conditions: SH1000, 72 h
outcome-measure: MIC (µM)

A selection of reference data follows.
The molecule `CCCCCCCCCCCCCCCC[N+](C)(C)CCN(C)C` , tested on Staphylococcus aureus, showed MIC of 1

The molecule `CCCCCCCCCC[N+](C)(C)CCN(C)C` , tested on Staphylococcus aureus, showed MIC of 63

The molecule `CCCCCCCCCCC[N+](C)(C)CC[N+](C)(C)CCCCCCCCCC` , tested on Staphylococcus aureus, showed MIC of 1

a = CCCCCCCCCCCCCC[N+](C)(C)CC[N+](C)(C)CCCCCCCC
b = CCCCCCCCCCCCCCCCCC[N+](C)(C)CC[N+](C)(C)CCCCCCCC
Query block: When their MIC values are compared, which is larger, a or b ? Mark your selection by writing its label.
Result block: b

1 = CCCCCCCCCCCCCCCCCCCC[N+](C)(C)CC[N+](C)(C)CCCCCCCCCCCCCC
2 = CCCCCCCC[N+](C)(C)CC[N+](C)(C)CCCCCCCC
Query block: When their MIC values are compared, which is larger, 1 or 2 ? Mark your selection by writing its label.
Result block: 2
(2: 32 µM, 1: 8 µM)

====

system: Escherichia coli; test: Antibacterial activity against Escherichia coli MC4100 assessed as growth inhibition after 72 hrs by broth microdilution method; assay type: functional; conditions: MC4100, 72 h
outcome-measure: MIC (µM)

A selection of reference data follows.
The value of MIC measured for the compound `CCCCCCCCCCCC[N+](C)(C)CC[N+](C)(C)CCCCCCCC` turned out to be 4

The value of MIC measured for the compound `CCCCCCCCCCC[N+](C)(C)CC[N+](C)(C)CCCCCCCCCC` turned out to be 4

The value of MIC measured for the compound `CCCCCCCCCCCCCCCCCCCC[N+](C)(C)CCN(C)C` turned out to be 63

A = CCCCCCCCCCCCCCCCCC[N+](C)(C)CC[N+](C)(C)CCCCCCCCCCCCCCCCCC
B = CCCCCCCCCCCCCC[N+](C)(C)CC[N+](C)(C)CCCCCCCC
C = CCCCCCCCCCCCCCCCCC[N+](C)(C)CC[N+](C)(C)CCCCCCCCCC
Query block: Rank the items in ascending order with respect to MIC. Answer by listing the labels in the order asked for.
Result block: B, C, A
(B: 2 µM, C: 16 µM, A: 250 µM)

====

tested on: Pseudomonas aeruginosa; assay: Antibacterial activity against wild-type Pseudomonas aeruginosa PAO1 assessed as growth inhibition after 72 hrs by broth microdilution method; format: functional; conditions: PAO1, 72 h
outcome-measure: MIC (µM)

The value of MIC measured for the compound `CCCCCCCCCCCCCCCCCCCC[N+](C)(C)CC[N+](C)(C)CCCCCCCCCC` turned out to be 16

The value of MIC measured for the compound `CCCCCCCCCCCCCCCCCC[N+](C)(C)CCN(C)C` turned out to be 63

A = CCCCCCCCCCCCCCCCCC[N+](C)(C)CC[N+](C)(C)CCCCCCCCCCCCCC
B = CCCCCCCCCCCCCCCC[N+](C)(C)CC[N+](C)(C)CCCCCCCC
C = CCCCCCCCCCCCCCCC[N+](C)(C)CC[N+](C)(C)CCCCCCCCCC
D = CCCCCCCCCC[N+](C)(C)CC[N+](C)(C)CCCCCCCC
Query block: Rank the items in ascending order with respect to MIC. Answer by listing the labels in the order asked for.
Result block: B, C, A, D

====

system: Pseudomonas aeruginosa; test: Antibacterial activity against wild-type Pseudomonas aeruginosa PAO1 assessed as growth inhibition after 72 hrs by broth microdilution method; type: functional; details: PAO1, 72 h
outcome-measure: MIC (µM)

A selection of reference data follows.
The molecule `CCCCCCCCCCCC[N+](C)(C)CC[N+](C)(C)CCCCCCCC` , tested on Pseudomonas aeruginosa, showed MIC of 4

The molecule `CCCCCCCCCCCC[N+](C)(C)CC[N+](C)(C)CCCCCCCCCCCC` , tested on Pseudomonas aeruginosa, showed MIC of 4

1 = CCCCCCCCCCCCCCCCCC[N+](C)(C)CC[N+](C)(C)CCCCCCCCCCCCCCCC
2 = CCCCCCCCCC[N+](C)(C)CCN(C)C
3 = CCCCCCCCCCCCCCCCCC[N+](C)(C)CC[N+](C)(C)CCCCCCCCCCCCCCCCCC
4 = CCCCCCCCCCCCCCCCCC[N+](C)(C)CC[N+](C)(C)CCCCCCCCCC
5 = CCCCCCCCCCCCCC[N+](C)(C)CC[N+](C)(C)CCCCCCCC
Query block: Rank order required: MIC, descending. Answer by listing the labels in the order asked for.
Result block: 3, 2, 1, 4, 5

a = CCCCCCCCCCCCCCCCCCCC[N+](C)(C)CC[N+](C)(C)CCCCCCCCCCCC
b = CCCCCCCCCC[N+](C)(C)CC[N+](C)(C)CCCCCCCCCC
c = CCCCCCCCCCCCCC[N+](C)(C)CCN(C)C
d = CCCCCCCCCCCCC[N+](C)(C)CC[N+](C)(C)CCCCCCCCCC
e = CCCCCCCCCCCC[N+](C)(C)CCN(C)C
Query block: Rank the items in ascending order with respect to MIC. Answer by listing the labels in the order asked for.
Result block: d, b, a, c, e
(d: 2 µM, b: 8 µM, a: 63 µM, c: 125 µM, e: 250 µM)

I = CCCCCCCCCCCCCC[N+](C)(C)CC[N+](C)(C)CCCCCCCCCCCC
II = CCCCCCCCCCCCCCCCCCCC[N+](C)(C)CCN(C)C
III = CCCCCCCCCCCCCC[N+](C)(C)CC[N+](C)(C)CCCCCCCCCCCCCC
IV = CCCCCCCCCCCC[N+](C)(C)CC[N+](C)(C)CCCCCCCCCC
V = CCCCCCCC[N+](C)(C)CC[N+](C)(C)CCCCCCCC
Query block: Rank order required: MIC, descending. Answer by listing the labels in the order asked for.
Result block: V, II, III, I, IV
(V: 500 µM, II: 125 µM, III: 32 µM, I: 8 µM, IV: 2 µM)
